target: XIAP BIR-3 (Homo sapiens); construct: 40 nM of the respective IAP BIR3; test: Fluorescence polarization binding to XIAP BIR-3 with labeled peptide AbuRPF-K(5-Fam)-NH2; settings: 40 nM BIR3, 5 nM labeled peptide, reported as ranges
pKd: −log10 of the molar value.
QUANTITY MEASURED: pKd

Solved cases below.
CN[C@@H](C)C(=O)N[C@H](C(=O)N1CC[C@@H]2[C@H]1[C@@H](Oc1ccc(F)c(F)c1)CN2C1CCCC1)C(C)(C)C    6.00 to 7.00
CN[C@@H](C)C(=O)N[C@H](C(=O)N1CC[C@@H]2[C@H]1[C@@H](Oc1ccc(F)c(F)c1)CN2C(=O)CC(C)C)C(C)(C)C    > 7.00
CN[C@@H](C)C(=O)N[C@H](C(=O)N1CC[C@H]2NC[C@H](Oc3ccc4ccccc4c3)[C@H]21)C1CCCCC1    > 7.00
CN[C@@H](C)C(=O)N[C@H](C(=O)N1CC[C@@H]2[C@H]1[C@@H](COc1ccc(F)c(F)c1)CN2C(=O)OC)C(C)(C)C    > 7.00
CNC(C)C(=O)NC(C(=O)N1CCC2C1C(OC(=O)NCc1ccccc1)CN2C(=O)NC(C)C)C(C)(C)C (stereo not drawn)    6.00 to 7.00

Could you now look at the following compound, please?
Any idea what its pKd is? The compound is CN[C@@H](C)C(=O)N[C@H](C(=O)N1CC[C@@H]2[C@H]1[C@@H](Oc1ccc(F)cc1)CN2S(C)(=O)=O)C1CCCCC1
> 7.00

###

Catalogue of molecules with associated Kd
target: XIAP BIR-3 (Homo sapiens, UniProt P98170); construct: 40 nM of the respective IAP BIR3; assay: Fluorescence polarization binding to XIAP BIR-3 with labeled peptide AbuRPF-K(5-Fam)-NH2; settings: 40 nM BIR3, 5 nM labeled peptide, reported as ranges
Sequence (P98170 241-356 limits assumed): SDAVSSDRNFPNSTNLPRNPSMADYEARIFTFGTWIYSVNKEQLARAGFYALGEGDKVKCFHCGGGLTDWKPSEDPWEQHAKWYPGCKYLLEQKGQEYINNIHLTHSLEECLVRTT

Solved cases below.
CN[C@@H](C)C(=O)N[C@H](C(=O)N1CC[C@H]2NC[C@H](OCc3ccc(F)cc3)[C@H]21)C(C)(C)C [Example 35]    100 to 1000 nM
CN[C@@H](C)C(=O)N[C@H](C(=O)N1CC[C@@H]2[C@H]1[C@@H](Oc1ccc(F)cc1)CN2C(=O)NC(C)C)C1CCCCC1 [Example 28]    < 100 nM
CN[C@@H](C)C(=O)N[C@H](C(=O)N1CC[C@@H]2[C@H]1[C@@H](COc1ccc(F)c(F)c1)CN2S(C)(=O)=O)C(C)(C)C [Example 63]    < 100 nM
CN[C@@H](C)C(=O)N[C@H](C(=O)N1CC[C@@H]2[C@H]1[C@@H](Oc1ccc(F)cc1)CN2C(=O)NC(C)C)C(C)(C)C [Example 29]    < 100 nM
CN[C@@H](C)C(=O)N[C@H](C(=O)N1CC[C@@H]2[C@H]1[C@@H](Oc1ccc(F)c(F)c1)CN2C(C)=O)C(C)(C)C [Example 21]    100 to 1000 nM

Could you now look at the following molecule, please?
Any idea what its Kd is? The molecule is CN[C@@H](C)C(=O)N[C@H](C(=O)N1CC[C@H]2NC[C@H](Oc3cccc4c3CCCC4)[C@H]21)C1CCCCC1 [Example 5]
100 to 1000 nM

Cited source for all entries: patent US8415486B2
